Source: PubChem BioAssay (NCI)

growth inhibition values, listed per item
Test Summary: NCI Yeast Anticancer Drug Screen. Data for the mec2-1 strain (AID 157)
Assay Setup: S. cerevisiae mec2-1 strain, at 50.0 µM, active compounds read high
This is part of a sample that, as a whole, favours compounds with a hit. Of some 79,000 tested, about 15% had one in any assay.
Measurement Label: growth inhibition (%)

>  <Compound>
CN(C)/C(N)=N/S(=O)(=O)c1ccc(C#N)cc1

>  <Assay Value>
2.85

$$$$
>  <Compound>
O=[N+]([O-])c1ccc(C=C2C=c3ccccc3=C2)cc1

>  <Assay Value>
1.1

$$$$
>  <Compound>
COc1ccc(NC(=O)CC(=O)n2nc(C)c(N=Nc3ccccc3C(=O)O)c2C)cc1

>  <Assay Value>
10.6

$$$$
>  <Compound>
CCOc1ccc(N2C(=O)NC3(c4ccccc4)N(C)C(=O)N(C)C23c2ccccc2)cc1 (stereo unspecified)

>  <Assay Value>
-7.95

$$$$
>  <Compound>
Cc1ccc(-c2cnc3c(n2)c(=O)[nH]c(=O)n3C)cc1

>  <Assay Value>
19.1

$$$$
>  <Compound>
Cn1c(=O)c2[nH]c(C3CCCCCC3)nc2n(C)c1=O

>  <Assay Value>
-9.7

$$$$
>  <Compound>
COc1cc2ccc3c4cc(OC)c(OCc5ccccc5)cc4cnc3c2cc1OC

>  <Assay Value>
0.45

$$$$
>  <Compound>
COc1ccc(-c2nn(CCO)c(=O)c(C#N)c2-c2ccc(OC)cc2)cc1

>  <Assay Value>
1.3

$$$$
>  <Compound>
NC(=O)NC12CC3CC(CC(F)(C3)C1)C2

>  <Assay Value>
-29.1

$$$$
>  <Compound>
O=c1[nH]c2ccccc2c(O)c1/C=N/C(=S)NC1CCCCC1

>  <Assay Value>
-36.3

$$$$
>  <Compound>
C=C(NC(C)=O)C(=O)O

>  <Assay Value>
-7.4

$$$$
